Ref: patent US10738045B2

Below, each of the molecules is paired with its reported percent control (mortality, anti-feedant effect or growth inhibition) at 200 ppm value.
Test system: Spodoptera littoralis (Egyptian Cotton Leaf Worm)
Assay: whole plant or invertebrate
Format: in vivo
Conditions: foliar, 72 h, application rate of 200 ppm, L1 larvae, 3 days after infestation, read-out: control (mortality, anti-feeding effect or growth inhibition)
Experimental: Cotton leaf discs were placed onto agar in 24-well microtiter plates and sprayed with aqueous test solutions prepared from 10,000 ppm DMSO stock solutions. After drying the leaf discs were infested with five L1 larvae. The samples were assessed for mortality, anti-feeding effect, and growth inhibition in comparison to untreated samples 3 days after infestation.
measuredMetric: percent control (mortality, anti-feedant effect or growth inhibition) at 200 ppm

chemSmiles	result
CCS(=O)(=O)c1cc(Br)cnc1-c1nc2cc(C(F)(F)F)n(C3CC3)c(=O)c2n1C	≥ 80%
CCS(=O)(=O)c1cc(-n2cnc(Cl)n2)cnc1-c1nc2cc(C(F)(F)F)n(C3CC3)c(=O)c2n1C	≥ 80%
CCS(=O)(=O)c1cc(C(F)(F)F)cnc1-c1nc2cc(C(F)(F)F)n(C3CC3)c(=O)c2n1C	≥ 80%

----------
Below, each of the molecules is paired with its reported percent effect (mortality or growth inhibition) at 200 ppm value.
System: Euschistus heros (Neotropical Brown Stink Bug)
Experiment: whole plant or invertebrate
Format: in vivo
Details: in Glycine max, 120 h, application rate of 200 ppm, N2 nymphs, 5 days after infestation, read-out: effect in at least one of the two categories (mortality or growth inhibition)
measuredMetric: percent effect (mortality or growth inhibition) at 200 ppm

chemSmiles	result
CCS(=O)(=O)c1cc(-c2cc(C(F)(F)F)ccn2)cnc1-c1nc2cc(C(F)(F)F)n(C3CC3)c(=O)c2n1C	≥ 80%
CCS(=O)(=O)c1cc(-c2cc(F)cc(F)c2)cnc1-c1nc2cc(C(F)(F)F)n(C3CC3)c(=O)c2n1C	≥ 80%
CCS(=O)(=O)c1cc(-n2ccc(C(F)(F)F)n2)cnc1-c1nc2cc(C(F)(F)F)n(C3CC3)c(=O)c2n1C	≥ 80%
